Give measured Th-T fluorescence, mean of three wells (Fig. 7a) for each item. Keep answers brief.
# system: Aβ42 (Homo sapiens, UniProt P05067)
# Sequence (P05067 672-713): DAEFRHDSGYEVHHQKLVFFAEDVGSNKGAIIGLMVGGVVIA
# assay_comment: Th-T (thioflavin-T) assay of Aβ42 aggregation
# Format: biochemical
# assay_setup: column suffix _10; measurement M23
Give bare numbers.

INSERT INTO results (molecule, system, reported_value) VALUES
  ('C=C1CC[C@@H]2[C@](C)(CC[C@H]3O[C@H](C=C(C)C)C[C@@]23C)[C@@H]1Cc1c(OC)oc(CO)c(C)c1=O', 'Aβ42 (Homo sapiens, UniProt P05067)', 3.464),
  ('C=C1CC[C@@H]2[C@](C)(CC[C@H]3O[C@H](C=C(C)C)C[C@@]23C)[C@@H]1Cc1c(OC)oc(CO)c(C(=O)OC)c1=O', 'Aβ42 (Homo sapiens, UniProt P05067)', 0.2319),
  ('C=C1CCC2C(C)(CCC=C(C)C)C(O)CCC2(C)C1Cc1c(OC)oc(CO)c(C)c1=O (centres unmarked)', 'Aβ42 (Homo sapiens, UniProt P05067)', 2.692),
  ('C=C1CCC2C(C)(CCC=C(C)C)C(O)CCC2(C)C1Cc1c(OC)oc(CO)c(C(=O)OC)c1=O (centres unmarked)', 'Aβ42 (Homo sapiens, UniProt P05067)', 0.249);

Q: Report Th-T fluorescence, mean of three wells (Fig. 7a) for C=C1CCC2C(C)(CCC=C(C)C)C(O)CCC2(C)C1Cc1c(OC)oc(C)c(C(=O)OC)c1=O (centres unmarked) please.
A: 2.232

====

# system: UniProt P05067
# assay_comment: Th-T (thioflavin-T) assay of Aβ42 aggregation
# Assay type: biochemical
# assay_setup: time-course reading M97; Supplementary Fig. 47 source data
Using Th-T fluorescence, mean of three wells as the sorting value, the categories are low bracket = under 3, middle bracket = from 3 up to 4, high bracket = 4 and over

INSERT INTO results (compound, label) VALUES
  ('C=C1CCC2C(C)(CCC=C(C)C)C(O)CCC2(C)C1Cc1c(O)c(C)c(C)oc1=O (stereo not drawn) [Compound 9, higginsianin B]', 'low bracket'),
  ('C=C1CC[C@@H]2[C@](C)(CC[C@H]3O[C@H](C=C(C)C)C[C@@]23C)[C@@H]1Cc1c(OC)oc(CO)c(C)c1=O', 'high bracket'),
  ('C=C1CCC2C(C)(CCC=C(C)C)C(O)CCC2(C)C1Cc1c(OC)oc(C)c(C(=O)OC)c1=O (stereo not drawn)', 'low bracket'),
  ('C=C1CC[C@H]2[C@]3(C)C[C@H](C=C(C)C)O[C@H]3CC[C@]2(C)[C@@H]1Cc1c(O)c(C)c(C)oc1=O', 'middle bracket'),
  ('C=C1CCC2C(C)(CCC=C(C)C)C(O)CCC2(C)C1Cc1c(O)c(C)c(C)oc1=O (stereo not drawn) [Compound 4]', 'low bracket');

Query compound follows.
Q: For C=C1CC[C@H]2[C@]3(C)C[C@@H](C=C(C)C)O[C@H]3CC[C@]2(C)[C@@H]1Cc1c(OC)oc(CO)c(C)c1=O , which Th-T fluorescence, mean of three wells bin applies?
A: middle bracket

====

Can you tell me Th-T fluorescence, mean of three wells for the items I'm about to list?
# system: UniProt:P05067
# assay_comment: Th-T (thioflavin-T) assay of Aβ42 aggregation
# Format: biochemical
# assay_setup: Supplementary Fig. 47; reading M139
Answers are plain numbers.

Some solved entries appear below for comparison.
INSERT INTO results (compound, reported_value) VALUES
  ('C=C1CCC2C(C)(CCC=C(C)C)C(O)CCC2(C)C1Cc1c(OC)oc(C)c(C)c1=O (stereo not shown) [Compound 11]', 3.301),
  ('C=C1CC[C@H]2[C@]3(C)C[C@@H](C=C(C)C)O[C@H]3CC[C@]2(C)[C@@H]1Cc1c(O)c(C)c(C)oc1=O', 2.636),
  ('C=C1CC[C@H]2[C@]3(C)C[C@@H](C=C(C)C)O[C@H]3CC[C@]2(C)[C@@H]1Cc1c(OC)oc(CO)c(C)c1=O', 3.585),
  ('C=C1CC[C@H]2[C@]3(C)C[C@H](C=C(C)C)O[C@H]3CC[C@]2(C)[C@@H]1Cc1c(OC)oc(C)c(C)c1=O', 3.871),
  ('C=C1CCC2C(C)(CCC=C(C)C)C(=O)CCC2(C)C1Cc1c(O)c(C)c(C)oc1=O (stereo not shown)', 2.196),
  ('C=C1CCC2C(C)(CC(=O)C=C(C)C)C(O)CCC2(C)C1Cc1c(OC)oc(CO)c(C)c1=O (stereo not shown)', 3.59);

List Th-T fluorescence, mean of three wells for every entry below, keeping the order given.
1. C=C1CCC2C(C)(CC(=O)C=C(C)C)C(O)CCC2(C)C1Cc1c(OC)oc(C)c(C)c1=O (stereo not shown)
2. C=C1CC[C@@H]2[C@](C)(CC[C@H]3O[C@H](C=C(C)C)C[C@@]23C)[C@@H]1Cc1c(O)c(C)c(C)oc1=O

A:
3.524
2.9735
